- EXPERIMENT NOTES: Solubility
- Type: physicochemical
- RUN PARAMETERS: alcohol (ethyl alcohol); qualitative

MOLECULE | solubility in alcohol
CC[C@@]12C=C(C(=O)OC)n3c4c(c5ccccc53)CCN(CCC1)[C@H]42 [Example 12.b, Apovincamine furoate] | soluble
CC[C@@]12C=C(C(=O)OC)n3c4c(c5ccccc53)CCN(CCC1)[C@H]42 [Example 14.b, Apovincamine L(+)-O,O-dibenzoyltartrate] | soluble
CC[C@@]12C=C(C(=O)OC)n3c4c(c5ccccc53)CCN(CCC1)[C@H]42 [Example 10.b, Apovincamine pivalate] | soluble
CC[C@@]12C=C(C(=O)OC)n3c4c(c5ccccc53)CCN(CCC1)[C@H]42 [Example 26.b, Apovincamine indolyl-3-acetate] | poorly soluble
CC[C@]12CCCN3CCc4c(n(c5ccccc45)[C@@](O)(C(=O)OC)C1)[C@@H]32 [Example 19.a, Vincamine p-chlorophenoxyacetate] | soluble
CC[C@@]12C=C(C(=O)OC)n3c4c(c5ccccc53)CCN(CCC1)[C@H]42 [Example 9.b, Apovincamine clofibrate] | soluble
CC[C@@]12C=C(C(=O)OC)n3c4c(c5ccccc53)CCN(CCC1)[C@H]42 [Example 21.b, Apovincamine caproate] | insoluble
CC[C@@]12C=C(C(=O)OC)n3c4c(c5ccccc53)CCN(CCC1)[C@H]42 [Example 2.b, Apovineamine 2,4-dihydroxy-benzoate] | soluble
CC[C@@]12C=C(C(=O)OC)n3c4c(c5ccccc53)CCN(CCC1)[C@H]42 [Example 5.b, Apovincamine 2,6-dihydroxybenzoate] | poorly soluble
CC[C@@]12C=C(C(=O)OC)n3c4c(c5ccccc53)CCN(CCC1)[C@H]42 [Example 8.b, Apovincamine p-toluensulfonate] | soluble
CC[C@@]12C=C(C(=O)OC)n3c4c(c5ccccc53)CCN(CCC1)[C@H]42 [Example 18.b] | insoluble
CC[C@]12CCCN3CCc4c(n(c5ccccc45)[C@@](O)(C(=O)OC)C1)[C@@H]32 [Example 7.a, Vincamine 3,5-dihydroxybenzoate] | insoluble
CC[C@]12CCCN3CCc4c(n(c5ccccc45)[C@@](O)(C(=O)OC)C1)[C@@H]32 [Example 14.a, Vincamine L(+)-O,O-dibenzoyltartrate] | poorly soluble

Data origin: patent US4122179A
